From: the supplement of paper PMC10567573

B1: GFOD1 (parent)
chain: SDDFCTFQMVLEGGVCCTVTLNFN

Variants of: B1
assay_details: protein stability index of a GFP-peptide fusion (GPS, HEK-293T) (PSI 1-6); higher = more stable;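 further: lentivirally expressed fusions sorted by FACS into six bins by GFP to DsRed ratio, PSI derived from sequencing read proportions per bin multiplied by bin number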
details: c terminus: a fixed tail appended
quantity_name: protein stability index
Answers are plain numbers.

Observe how each entry below is paired with its result.
residue_change: V10M
protein stability index: 1.84

residue_change: L11I
protein stability index: 2.51

residue_change: F7Y
protein stability index: 2.77

residue_change: V15H
protein stability index: 4.25

residue_change: C16I
protein stability index: 3.88

residue_change: E12S
protein stability index: 3.99

residue_change: G13I
protein stability index: 2.35

residue_change: E12Q
protein stability index: 2.74

residue_change: T6P
protein stability index: 1.65

residue_change: L21S
protein stability index: 1.84

Okay, now this variant:
Query (variant): Q8A ; field requested: protein stability index
3.01
